Entry source: ChEMBL document CHEMBL2218924

Tested system: Mitogen-activated protein kinase 3 (Homo sapiens)
Condition set: at 10 µM
Description: Millipore: Percentage of residual kinase activity of MAPK3 at 10uM relative to control. Control inhibitor: ERK Inhibitor II at 30.0uM. Buffer: 25 mM Tris pH 7.5, 0.02 mM EGTA
Assay readout: residual activity (%)

• CC(C)n1cnc2c(NCc3ccccc3)nc(NCCCO)nc21 = 92
• CC#CC(=O)Nc1cc2c(Nc3ccc(F)c(Cl)c3)ncnc2cn1 = 88
• CC(=O)c1ccc(N2CCOCC2)cc1O = 89
• COc1cccc(-c2cc(=O)c3ccccc3o2)c1N = 90

* * *

Tested system: Protein-tyrosine kinase 2-beta (Homo sapiens) (UniProt Q14289)
Sequence (Q14289 whole entry, looked up): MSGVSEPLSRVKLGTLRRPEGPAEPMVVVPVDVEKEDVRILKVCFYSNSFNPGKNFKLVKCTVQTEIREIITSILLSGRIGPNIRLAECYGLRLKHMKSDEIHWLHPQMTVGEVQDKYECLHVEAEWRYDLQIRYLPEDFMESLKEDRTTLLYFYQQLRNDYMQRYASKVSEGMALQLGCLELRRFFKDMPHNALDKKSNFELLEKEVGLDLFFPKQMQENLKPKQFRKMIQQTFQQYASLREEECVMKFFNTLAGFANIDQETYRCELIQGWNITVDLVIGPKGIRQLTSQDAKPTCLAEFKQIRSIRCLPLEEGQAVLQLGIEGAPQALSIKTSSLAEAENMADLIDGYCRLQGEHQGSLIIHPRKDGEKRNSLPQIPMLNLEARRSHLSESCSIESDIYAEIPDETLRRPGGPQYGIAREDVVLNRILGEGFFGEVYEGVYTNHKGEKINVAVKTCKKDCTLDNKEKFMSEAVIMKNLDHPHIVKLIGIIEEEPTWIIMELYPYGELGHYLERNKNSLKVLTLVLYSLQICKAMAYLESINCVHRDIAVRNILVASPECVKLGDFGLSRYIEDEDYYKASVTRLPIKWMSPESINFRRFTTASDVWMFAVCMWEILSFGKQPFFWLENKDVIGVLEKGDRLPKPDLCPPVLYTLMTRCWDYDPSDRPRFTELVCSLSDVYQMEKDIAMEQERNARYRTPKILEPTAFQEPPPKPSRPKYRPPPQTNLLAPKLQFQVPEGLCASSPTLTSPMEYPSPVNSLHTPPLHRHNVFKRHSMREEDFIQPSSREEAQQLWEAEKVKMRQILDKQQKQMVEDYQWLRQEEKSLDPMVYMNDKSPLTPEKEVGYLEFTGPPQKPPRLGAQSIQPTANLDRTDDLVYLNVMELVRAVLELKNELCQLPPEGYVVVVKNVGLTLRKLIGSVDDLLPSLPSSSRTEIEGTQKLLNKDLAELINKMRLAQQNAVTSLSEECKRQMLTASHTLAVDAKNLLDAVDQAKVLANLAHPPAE
Condition set: at 10 µM
Assay readout: residual activity

* O=C(Nc1cccc(Nc2cc(Nc3cccc(C(F)(F)F)c3)ncn2)c1)C1CC1 | 63%
* Nc1n[nH]c2nnc(-c3c(-c4ccccc4)nn4ccccc34)cc12 | 72%
* CC[n+]1c(/C=C/N(C)c2ccccc2)n(-c2ccccc2)c2ccc(-c3nc4ccccc4s3)cc21 | 83%
* O=c1cc(-c2cccc3c2Sc2ccccc2S3)oc(N2CCOCC2)c1 | 112%
* Cc1cccc(-c2[nH]c(C(C)(C)C)nc2-c2ccc3c(c2)OCO3)n1 | 103%
* NC(=O)c1ccc2[nH]c(-c3ccc(Oc4ccc(Cl)cc4)cc3)nc2c1 | 86%
* Nc1ccc2ncnc(NCCc3ccc(Oc4ccccc4)cc3)c2c1 | 72%
